- targetOrTestSystem: T1, HLA-A*0201 loaded with the Carcinoembryonic antigen (CEA)-derived … peptide (biotin on the C-terminal biotinylation tag)
- T1 construct: Soluble, biotinylated, immobilised on a streptavidin chip
- assayName: Biacore SPR
- Protocol: SPR measures changes in refractive index expressed in response units (RU) near a sensor surface within a small flow cell, a principle that can be used to detect receptor ligand interactions and to analyse their affinity and kinetic parameters. The probe flow cells were prepared by immobilising the pMHC complexes in flow cells via biotin-tag binding. […]
measuredMetric: koff

• SEQ ID NO 72 (receptor, mutated soluble two domain ILT-2) MGHLPKPTLWAEPGSVITQGSPVTLRCQGGQETQEYRLYREKKTAPWITRIPQELVKKGQFPIPSITWEHAGRYRCYYGTQTAGRSESSDPLELVVTGVYIKPTLSAQPSPVVNSGGNVTLQCDSQVAFDGFILCKEGEDEHPQCLNSQPHARGSSRAIFSVGPVSPSRRWWYRCYAYDSNSPYEWSLPSDLLELLVL = ≤ 2 s⁻¹
• SEQ ID NO 97 (receptor, mutated soluble two domain ILT-2) MGHLPKPTLWAEPGSVITQGSPVTLRCQGGQETQEYRLYREKKTAPWITRIPQELVKKGQFPIPSITWEHAGRYRCYYGSDTAGRSESSDPLELVVTGIYKAPTLSAQPSPVVNSGGNVTLQCDSQVAFDGFILCKEGEDEHPQCLNSQPHARGSSRAIFSVGPVSPGRRWWYRCYAYDSNSPYEWSLPSDLLELLVL = ≤ 2 s⁻¹
• SEQ ID NO 99 (receptor, mutated soluble two domain ILT-2) MGHLPKPTLWAEPGSVITQGSPVTLRCQGGQETQEYRLYREKKTAPWITRIPQELVKKGQFPIPSITWEHAGRYRCYYGSDTAGRSESSDPLELVVTGIYQAPTLSAQPSPVVNSGGNVTLQCDSQVAFDGFILCKEGEDEHPQCLNSQPHARGSSRAIFSVGPVSPGRRWWYRCYAYDSNSPYEWSLPSDLLELLVL = ≤ 2 s⁻¹
